- targetOfAssay: LHRH receptors (Rattus norvegicus, UniProt P30969)
- Construct: Pituitary membranes containing LHRH receptors are prepared in batches from quick-frozen rat pituitaries; tissue Hilltop Labs; host or cells: rat pituitary membranes
- Sequence (P30969 whole entry): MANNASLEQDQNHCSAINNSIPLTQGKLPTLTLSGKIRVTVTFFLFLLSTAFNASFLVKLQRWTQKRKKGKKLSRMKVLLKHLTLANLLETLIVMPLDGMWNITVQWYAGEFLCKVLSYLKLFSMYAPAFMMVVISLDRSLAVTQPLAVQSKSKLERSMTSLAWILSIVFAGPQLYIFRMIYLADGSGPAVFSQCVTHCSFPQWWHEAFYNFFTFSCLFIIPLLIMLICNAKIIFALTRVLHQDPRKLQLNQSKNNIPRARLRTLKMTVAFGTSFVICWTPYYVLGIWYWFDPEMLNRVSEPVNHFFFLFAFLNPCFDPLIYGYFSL
- assayNotes: Receptor Binding (radioligand receptor binding assay)
- particulars: table 4; rat pituitary membranes, radioligand 50 pM, 2 hours at 4° C.; read-out: Receptor Binding pkI (converted)
Numbered stars: 1 amine (or outer) side, 2 acyl side, 3 side chain; on linkers, the order of the positions; unused ones are H or OH. Square brackets hold non-standard residues; d marks the D form. Side chains are listed from the residue outwards. Peptide text beside a SMILES is read from it. * marks the point of attachment. Propanoyl(3-(4-F-phenyl)) = O=C(CCc1ccc(F)cc1)*; 1Nal = N[C@@H](Cc1cccc2ccccc12)C(=O)O; d1Nal = N[C@H](Cc1cccc2ccccc12)C(=O)O; d2Nal = N[C@H](Cc1ccc2ccccc2c1)C(=O)O; dLys(iPr) = CC(C)NCCCC[C@@H](N)C(=O)O; Lys(iPr) = CC(C)NCCCC[C@H](N)C(=O)O; NMeY = CN[C@@H](Cc1ccc(O)cc1)C(=O)O; dBta = N[C@H](Cc1csc2ccccc12)C(=O)O; Piperazinyl(4-Me) = CN1CCN(*)CC1; d2Thi = N[C@H](Cc1cccs1)C(=O)O; dCha = N[C@H](CC1CCCCC1)C(=O)O; Nicotinoyl = O=C(c1cccnc1)*; X9 = O=C(CCc1ccc(Br)cc1)*; CO = O=C([*:1])[*:2]
Kindly state Ki for each of the entries shown.
# unit: nM | format: bare number

Request - read-out Ki | tested on LHRH receptors (Rattus norvegicus, UniProt P30969) | compound CC(C)C[C@H](NC(=O)[C@@H](CCCCN)NC(=O)[C@H](Cc1ccc(O)cc1)N(C)C(=O)[C@H](CO)NC(=O)[C@@H](Cc1csc2ccccc12)NC(=O)CCc1ccc(F)cc1)C(=O)N[C@@H](CCCNC(=N)N)C(=O)N1CCC[C@H]1C(=O)N[C@H](C)C(N)=O [Compound 177] ({Propanoyl(3-(4-F-phenyl))}-[dBta]S[NMeY][dK]LRP[dA]-NH2)
0.00589

Note, next up: CC(C)C[C@H](NC(=O)[C@@H](CCCCNC(=O)c1cccnc1)NC(=O)[C@H](Cc1ccc(O)cc1)N(C)C(=O)[C@H](CO)NC(=O)[C@@H](Cc1cccs1)NC(=O)CCc1ccc(F)cc1)C(=O)N[C@@H](CCCNC(=N)N)C(=O)N1CCC[C@H]1C(=O)N[C@H](C)C(N)=O [Compound 161] ({Propanoyl(3-(4-F-phenyl))}-[d2Thi]S[NMeY][dK](Nicotinoyl)LRP[dA]-NH2)
0.0151

Note, next up: CC(C)C[C@H](NC(=O)[C@@H](CCCCNC(=O)c1cccnc1)NC(=O)[C@H](Cc1ccc(O)cc1)N(C)C(=O)[C@H](CO)NC(=O)[C@@H](Cc1ccc2ccccc2c1)NC(=O)CCc1ccc(F)cc1)C(=O)N[C@@H](CCCNC(=N)N)C(=O)N1CCC[C@H]1C(=O)N[C@H](C)C(N)=O [Compound 187] ({Propanoyl(3-(4-F-phenyl))}-[d2Nal]S[NMeY][dK](Nicotinoyl)LRP[dA]-NH2)
0.0224

Note, next up: CC(C)C[C@H](NC(=O)[C@@H](Cc1c[nH]c2ccccc12)NC(=O)[C@H](Cc1ccc(O)cc1)N(C)C(=O)[C@H](CO)NC(=O)[C@@H](Cc1c[nH]c2ccccc12)NC(=O)CCc1ccc(F)cc1)C(=O)N[C@@H](CCCNC(=N)N)C(=O)N1CCC[C@H]1C(=O)N[C@H](C)C(N)=O [Compound 164] ({Propanoyl(3-(4-F-phenyl))}-[dW]S[NMeY][dW]LRP[dA]-NH2)
0.0537

Note, next up: CCNC(=O)[C@@H]1CCCN1C(=O)[C@H](CCCN=C(N)N)NC(=O)[C@H](CC(C)C)NC(=O)[C@@H](Cc1c[nH]c2ccccc12)NC(=O)[C@H](Cc1ccc(O)cc1)NC(=O)[C@H](CO)NC(=O)[C@H]1CCCN1C(=O)CCc1ccc(F)cc1 [Compound 147] ({Propanoyl(3-(4-F-phenyl))}-[dP]SY[dW]LRP-NHEt)
0.02

Note, next up: CC(C)C[C@H](NC(=O)[C@@H](CCCCNC(C)C)NC(=O)[C@H](Cc1ccc(O)cc1)N(C)C(=O)[C@H](CO)NC(=O)[C@@H](Cc1csc2ccccc12)NC(=O)CCc1ccc(F)cc1)C(=O)N[C@@H](CCCNC(=N)N)C(=O)N1CCC[C@H]1C(=O)N[C@H](C)C(N)=O [Compound 198] ({Propanoyl(3-(4-F-phenyl))}-[dBta]S[NMeY][dLys(iPr)]LRP[dA]-NH2)
0.00933

Note, next up: CC(C)C[C@H](NC(=O)[C@@H](Cc1ccc(O)cc1)NC(=O)[C@H](Cc1ccc(O)cc1)N(C)C(=O)[C@H](CO)NC(=O)[C@@H](Cc1c[nH]c2ccccc12)NC(=O)CCc1ccc(F)cc1)C(=O)N[C@@H](CCCCNC(C)C)C(=O)N1CCC[C@H]1C(=O)N[C@H](C)C(N)=O [Compound 196] ({Propanoyl(3-(4-F-phenyl))}-[dW]S[NMeY][dY]L[Lys(iPr)]P[dA]-NH2)
0.0234

Note, next up: CC(C)C[C@H](NC(=O)[C@@H](CCCCNC(=O)N1CCN(C)CC1)NC(=O)[C@H](Cc1ccc(O)cc1)N(C)C(=O)[C@H](CO)NC(=O)[C@@H](Cc1cccc2ccccc12)NC(=O)CCc1ccc(F)cc1)C(=O)N[C@@H](CCCNC(=N)N)C(=O)N1CCC[C@H]1C(=O)N[C@H](C)C(N)=O [Compound 211] ({Propanoyl(3-(4-F-phenyl))}-[d1Nal]S[NMeY][dK]([CO-Piperazinyl(4-Me)])LRP[dA]-NH2)
0.0151

Note, next up: CCNC(=O)N[C@@H](Cc1ccccc1)C(=O)N[C@H](Cc1cccc2ccccc12)C(=O)N[C@@H](CO)C(=O)N[C@@H](Cc1ccc(O)cc1)C(=O)N[C@H](Cc1c[nH]c2ccccc12)C(=O)N[C@@H](CC(C)C)C(=O)N[C@@H](CCCNC(=N)N)C(=O)N1CCC[C@H]1C(=O)NCC [Compound 238] ({NHEt-CO}-F[d1Nal]SY[dW]LRP-NHEt)
0.251

Note, next up: CC(C)C[C@H](NC(=O)[C@@H](CCCCNC(=O)c1cccnc1)NC(=O)[C@H](Cc1ccc(O)cc1)N(C)C(=O)[C@H](CO)NC(=O)[C@@H](CC1CCCCC1)NC(=O)CCc1ccc(F)cc1)C(=O)N[C@@H](CCCCNC(C)C)C(=O)N1CCC[C@H]1C(=O)N[C@H](C)C(N)=O [Compound 254] ({Propanoyl(3-(4-F-phenyl))}-[dCha]S[NMeY][dK](Nicotinoyl)L[Lys(iPr)]P[dA]-NH2)
0.012

Note, next up: CCNC(=O)[C@@H]1CCCN1C(=O)[C@H](CCCNC(=N)N)NC(=O)[C@H](CC(C)C)NC(=O)[C@@H](Cc1c[nH]c2ccccc12)NC(=O)[C@H](Cc1ccc(O)cc1)N(C)C(=O)[C@H](CO)NC(=O)[C@H](Cc1cccc2ccccc12)NC(=O)CCc1ccc(Br)cc1 [Compound 160] (X9-[1Nal]S[NMeY][dW]LRP-NHEt)
0.11
